# protocol.summary: RPMI8226 myeloma cell viability, profiling panel, resazurin fluorescence, basal, 24 h, PK04 Diversity Set (AID 1180);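 also: RPMI8826 multiple myeloma cell line at 5000 cells per well; test concentration not given here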
# experimental.setup: higher = more signal
measured.attribute: z-score

>>> print(df.to_string())
                                   compound  reported_value
0  CCCC[C@@H](O)C1=C(C)Cn2c(=O)n(-c3ccccc3)c(=O)n2[C@H]1CO         -0.0486
1  COC(=O)[C@H](Cc1ccccc1)N1CC(C)(OC)O[C@@H](Cc2ccccc2)[C@H]1/C=C/C1CC1 (stereo partly drawn)          -0.249

# next compound below
Quick check: z-score of COc1ccc([Si](C)(C)[C@@H]2[C@@H](CC(=O)N3Cc4ccccc4C[C@H]3CO)O[C@]3(C(=O)N(Cc4ccc(I)cc4)c4ccccc43)[C@H]2C)cc1 ?
-0.336

###

# protocol.summary: E. coli growth modulation, two-sided OD650, primary screen, E. coli filamentation project, strain DRC41, 24 h (AID 1093);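 also: MC1000 strain lacking acrAB efflux and sulA so SOS filamentation is blocked; test concentration not given here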
# experimental.setup: OD650, 24 h, higher = more signal, called active from +8 up or from −8 down
Reported z-score is given for each of the following compounds.
Please give the numeric answer without any surrounding text.

Example cases with answers are listed next.
compound	reported.value
COC(=O)Cn1c(C(=O)N(C)C)cc2c1C[C@H]1CN(C(=O)c3ccccc3)[C@@](Cc3ccccc3)(C(=O)OC)[C@@H]21	-0.537
C=CCNC(=O)[C@@H]1[C@H]2C(=O)O[C@H](c3ccccc3)[C@H](c3ccccc3)N2[C@H](c2ccc(OCCO)cc2)[C@@]12C(=O)Nc1ccc(C#CC3=CCCCC3)cc12	-0.639
COC(=O)[C@@]1(Cc2ccc(F)cc2)[C@H]2c3cc(C(=O)N4CCCC4)n(C[C@H](O)CO)c3C[C@H]2CN1C(=O)c1ccccc1	-0.836

Any idea what z-score was measured for COCCOC(=O)N1C(=O)[C@@]2(c3cc(C#CCC(C(=O)OC)C(=O)OC)ccc31)[C@H](C(N)=O)[C@H]1C(=O)O[C@H](c3ccccc3)[C@H](c3ccccc3)N1[C@@H]2c1ccccc1OCCO ?
0.533

Please give the result for CC1CC/C=C\[C@H]2OC34C=CCN(CCN5CCOCC5)C(=O)[C@H]3N(C(CO)C(C)C)C(=O)[C@@H]4C2C(=O)O1 (stereo partly specified) too.
-0.651

Please answer likewise for O=C1C2C=CC(C(O)C3CCCCC3)N(Nc3ccccc3F)C2C(=O)N1c1ccccc1 (stereo unspecified)
0.256

###

This section presents compounds with their documented composite z-score values.
# Test system: Wnt5a (protein binding on small-molecule microarray)
# protocol.summary: Wnt5a binders on small-molecule microarray, primary screen, biophysical, 635/667 nm fluorescence (AID 1142);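 also: fluorescence read at 667 nm with signal to noise per printed feature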
# experimental.setup: 635 nm fluorescence, higher = more signal
In your answer, state the number alone without any accompanying words.

// query composite z-score value for entry COC(=O)[C@@]1(Cc2ccccc2)[C@H]2c3cc(C(=O)N(C)C)n(Cc4nc5ccccc5[nH]4)c3C[C@H]2CN1C(=O)c1ccccc1
0.118

Try this compound too: COc1ccc(CCNC(=O)[C@@H]2c3ccccc3C(=O)N(C(C)C)[C@H]2c2ccc(CO)cc2)cc1
-0.234

For C=C(COC)C(=O)CC[C@H](OC(C)=O)c1ccc(CO)o1 then?
-0.0261

Value source: PubChem BioAssay
